Reference source for all entries: patent US10123954B1

System: human dermal fibroblast (HDF) cells
Assay: Hyaluronic acid in human dermal fibroblasts, pulsed versus daily treatment
Type: cell-based
Conditions: 12 consecutive days; Tiliacora triandra 0.05%, niacinamide 0.10%, glycolic acid 1 mM, retinol 1 μM, phytol 0.01%
Hi there, I'd appreciate the recorded % Change in HA over control (daily) for every entry that follows.
Please state the figure in %; there is no need to write the unit.

GET /values?readout=% Change in HA over control (daily)&item= C/C(=C\CO)CCC[C@H](C)CCC[C@H](C)CCCC(C)C
−4.0

GET /values?readout=% Change in HA over control (daily)&item= O=C(O)CO
9.1

GET /values?readout=% Change in HA over control (daily)&item= NC(=O)c1cccnc1 [Niacinamide]
−36.5

GET /values?readout=% Change in HA over control (daily)&item= CC1=C(/C=C/C(C)=C/C=C/C(C)=C/CO)C(C)(C)CCC1
17.2
